# Tested target: DNA polymerase α (Homo sapiens)
# Construct: Human DNA polymerases, a, β, and γ, were purified from 5.0 ml of packed K562 cells; endogenous in cells; host or cells: K562 cells
# Sequence (P09884 whole entry): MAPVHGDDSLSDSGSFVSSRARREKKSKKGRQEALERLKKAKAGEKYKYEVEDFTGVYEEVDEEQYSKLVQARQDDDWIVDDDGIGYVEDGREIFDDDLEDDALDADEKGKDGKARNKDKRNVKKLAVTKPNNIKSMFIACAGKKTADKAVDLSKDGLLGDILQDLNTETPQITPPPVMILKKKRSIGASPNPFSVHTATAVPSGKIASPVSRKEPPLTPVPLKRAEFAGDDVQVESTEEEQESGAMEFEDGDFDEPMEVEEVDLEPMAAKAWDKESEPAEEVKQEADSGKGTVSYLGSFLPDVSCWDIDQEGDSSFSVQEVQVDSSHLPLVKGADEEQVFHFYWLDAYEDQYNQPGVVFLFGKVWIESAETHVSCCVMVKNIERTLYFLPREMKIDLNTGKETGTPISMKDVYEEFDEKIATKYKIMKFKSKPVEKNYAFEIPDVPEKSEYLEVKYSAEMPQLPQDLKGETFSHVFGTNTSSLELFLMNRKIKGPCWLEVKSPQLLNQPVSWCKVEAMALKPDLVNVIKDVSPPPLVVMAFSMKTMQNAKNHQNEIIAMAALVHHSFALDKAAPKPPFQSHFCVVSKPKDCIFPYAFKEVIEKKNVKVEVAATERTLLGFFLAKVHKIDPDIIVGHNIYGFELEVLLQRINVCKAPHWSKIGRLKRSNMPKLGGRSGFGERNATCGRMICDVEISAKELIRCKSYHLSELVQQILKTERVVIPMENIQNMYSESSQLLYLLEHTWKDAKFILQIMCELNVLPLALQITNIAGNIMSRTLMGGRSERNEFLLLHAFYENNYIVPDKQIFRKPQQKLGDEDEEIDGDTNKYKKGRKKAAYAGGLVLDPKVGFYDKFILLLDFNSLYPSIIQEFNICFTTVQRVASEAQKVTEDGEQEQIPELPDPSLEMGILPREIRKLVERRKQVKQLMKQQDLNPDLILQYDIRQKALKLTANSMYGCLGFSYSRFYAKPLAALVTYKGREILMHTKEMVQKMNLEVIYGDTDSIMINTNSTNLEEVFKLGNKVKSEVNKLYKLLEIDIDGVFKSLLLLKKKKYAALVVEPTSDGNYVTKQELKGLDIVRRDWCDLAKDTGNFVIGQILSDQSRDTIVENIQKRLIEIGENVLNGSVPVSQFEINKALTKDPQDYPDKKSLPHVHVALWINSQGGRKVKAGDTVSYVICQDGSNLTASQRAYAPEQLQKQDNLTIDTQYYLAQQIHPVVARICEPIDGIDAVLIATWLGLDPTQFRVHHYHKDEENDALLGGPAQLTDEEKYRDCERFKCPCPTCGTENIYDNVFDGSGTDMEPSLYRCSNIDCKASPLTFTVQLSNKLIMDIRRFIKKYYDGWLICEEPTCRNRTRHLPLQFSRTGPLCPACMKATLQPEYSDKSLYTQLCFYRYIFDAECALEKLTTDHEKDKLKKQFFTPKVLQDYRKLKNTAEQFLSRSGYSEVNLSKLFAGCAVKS
# Sequence (Q14181 whole entry partner): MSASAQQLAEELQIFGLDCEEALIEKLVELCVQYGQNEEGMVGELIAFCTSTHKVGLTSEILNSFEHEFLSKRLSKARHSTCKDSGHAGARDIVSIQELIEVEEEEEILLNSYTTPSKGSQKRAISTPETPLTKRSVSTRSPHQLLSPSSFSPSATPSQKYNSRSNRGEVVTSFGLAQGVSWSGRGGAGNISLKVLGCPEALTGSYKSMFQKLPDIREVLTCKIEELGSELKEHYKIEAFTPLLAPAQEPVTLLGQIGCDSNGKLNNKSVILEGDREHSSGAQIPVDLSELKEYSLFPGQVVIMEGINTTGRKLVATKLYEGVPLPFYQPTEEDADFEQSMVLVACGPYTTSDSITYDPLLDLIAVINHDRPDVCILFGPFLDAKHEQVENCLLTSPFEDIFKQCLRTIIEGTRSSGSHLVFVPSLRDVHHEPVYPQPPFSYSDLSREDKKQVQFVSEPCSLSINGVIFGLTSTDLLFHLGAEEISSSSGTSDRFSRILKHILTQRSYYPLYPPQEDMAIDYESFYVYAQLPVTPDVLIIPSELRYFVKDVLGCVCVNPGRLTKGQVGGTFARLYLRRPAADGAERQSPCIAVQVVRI
# Sequence (P49642 whole entry partner): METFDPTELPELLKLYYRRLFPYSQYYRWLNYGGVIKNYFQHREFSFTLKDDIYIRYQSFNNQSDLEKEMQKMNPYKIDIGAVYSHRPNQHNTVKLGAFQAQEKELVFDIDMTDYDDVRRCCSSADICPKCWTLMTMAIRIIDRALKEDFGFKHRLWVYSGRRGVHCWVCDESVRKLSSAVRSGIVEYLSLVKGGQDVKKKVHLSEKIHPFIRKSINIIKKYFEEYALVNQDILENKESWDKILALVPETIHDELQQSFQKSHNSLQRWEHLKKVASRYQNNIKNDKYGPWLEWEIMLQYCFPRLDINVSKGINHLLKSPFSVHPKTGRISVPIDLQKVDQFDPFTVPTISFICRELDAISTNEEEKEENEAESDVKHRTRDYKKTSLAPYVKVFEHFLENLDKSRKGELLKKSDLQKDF
# Sequence (P49643 whole entry partner): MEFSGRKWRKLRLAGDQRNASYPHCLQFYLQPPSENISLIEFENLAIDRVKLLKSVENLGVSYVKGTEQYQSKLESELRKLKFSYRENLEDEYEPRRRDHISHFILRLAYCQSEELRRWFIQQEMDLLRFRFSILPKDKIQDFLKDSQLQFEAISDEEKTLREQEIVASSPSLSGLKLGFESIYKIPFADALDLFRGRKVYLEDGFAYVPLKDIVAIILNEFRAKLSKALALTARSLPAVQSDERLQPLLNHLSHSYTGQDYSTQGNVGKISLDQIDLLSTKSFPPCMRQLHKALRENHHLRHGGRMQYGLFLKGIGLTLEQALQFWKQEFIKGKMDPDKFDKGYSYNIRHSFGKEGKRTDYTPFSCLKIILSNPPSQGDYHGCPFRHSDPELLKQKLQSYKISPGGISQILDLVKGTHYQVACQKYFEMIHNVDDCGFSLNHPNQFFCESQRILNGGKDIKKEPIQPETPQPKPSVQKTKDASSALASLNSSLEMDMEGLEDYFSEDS
# Procedure summary: Inhibition of [3H]dGTP incorporation into DNA by host DNA polymerase α
# Type: biochemical
# Details: incorporation of 1 µM [3H]dGTP into DNA
Below is a list of entries, each paired with its recorded IC50 value.
Readout: IC50 (µM)

>>> reading("Nc1nc2c(ncn2[C@H]2C[C@@H](COP(=O)(O)OP(=O)(O)OP(=O)(O)O)[C@H](O)C2)c(=O)[nH]1")
470
>>> reading("Nc1nc2c(ncn2[C@@H]2C[C@H](COP(=O)(O)OP(=O)(O)OP(=O)(O)O)[C@@H](O)C2)c(=O)[nH]1")
2
